Species on record: Rattus norvegicus
Experiment: Selectivity for rat mu opioid receptor over rat delta opioid receptor
Where a SMILES comes first, the peptide text is derived from it. [ ]: non-standard residue; d: D form. ξ: configuration not given here. ξGly(decyl) = CCCCCCCCCCC(N)C(=O)O
Listed here are molecules together with their documented Ratio Ki.
metricName: Ratio Ki

[[record]]
molecule = "CCCCCCCCCCC(N)C(=O)N[C@@H](Cc1ccc(O)cc1)C(=O)N1CCC[C@H]1C(=O)N[C@@H](Cc1c[nH]c2ccccc12)C(=O)N[C@@H](Cc1ccccc1)C(N)=O (some centres undefined) (H-[ξGly(decyl)]YPWF-NH2)"
result = 56

[[record]]
molecule = "Cc1cc(O)cc(C)c1C[C@H](N)C(=O)N1CCC[C@H]1C(=O)N[C@@H](Cc1c[nH]c2ccccc12)C(=O)N[C@@H](Cc1ccccc1)C(N)=O (stereo in doubt; 13)"
result = 75

[[record]]
molecule = "NC(=O)[C@H](Cc1ccccc1)NC(=O)[C@H](Cc1c[nH]c2ccccc12)NC(=O)[C@@H]1CCCN1C(=O)[C@H](Cc1ccc(O)cc1)NC(=O)CCC(=O)N[C@@H]1O[C@H](CO)[C@@H](O)[C@H](O)[C@H]1O"
result = 55

[[record]]
molecule = "CCCCCCC(N)C(=O)N[C@@H](Cc1ccc(O)cc1)C(=O)N1CCC[C@H]1C(=O)N[C@@H](Cc1c[nH]c2ccccc12)C(=O)N[C@@H](Cc1ccccc1)C(N)=O (some centres undefined)"
result = 614

